Ref: patent US6153415A

// values below are reported Amidase Specific Activity
System: amidase
Assay: Effect of metal ions during growth on amidase activity of BR449
Format: cell-based, Bacillus sp. BR449
Conditions: BR449 grown with divalent metal salt 20 mg/l
Express the result in U/mg but write the number alone.

These solved cases illustrate the format of a correct answer.
- smiles-record: "[Co+2]"
  meas-value: 9.7
- smiles-record: "[Cu+2]"
  meas-value: 1.5

Incoming: Item [Mn+2] has what recorded Amidase Specific Activity?
Outgoing: 2.1

Incoming: What about this compound? [Fe+2]
Outgoing: 2.3

Incoming: And the next one, [Ni+2] ?
Outgoing: 3.4
